The reader will find reported Reduced relative colony forming efficiency, expressed as % inhibition, A549 values listed item by item below.
# System: A549 lung cell carcinoma
# method_description: Relative colony forming efficiency after antisense treatment (Table 13)
# Format: cell-based, human
# assay_conditions: 0.2 μM antisense oligodeoxyribonucleotide phosphorothioate; A549 cells; averages of 2-8 determinations
Strand notation (5' to 3'): a small letter for the sugar, then the base; units joined by * are phosphorothioate-linked, units joined directly phosphodiester-linked; [ ] holds rarer units or linkages, { } end groups; capitals alone tell only the bases. d = 2'-deoxy (DNA)
assay_metric: Reduced relative colony forming efficiency, expressed as % inhibition, A549

item_sequence | result
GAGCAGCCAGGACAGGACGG (antisense dG*dA*dG*dC*dA*dG*dC*dC*dA*dG*dG*dA*dC*dA*dG*dG*dA*dC*dG*dG) [AS-II-151-20] | 84.28%
ATTAAAATCTGCGTTGAAGC (DNA, all phosphorothioate, methylation of C not given here) [AS-II-1700-20] | 77.28%
TTCATGGTGTGGCTAGTTGG (DNA, all phosphorothioate, methylation of C not given here) [AS-II-1438-20] | 51.27%

* * *

The reader will find reported Reduced relative colony forming efficiency, expressed as % inhibition, HCT116 values listed item by item below.
# System: HCT116 colon cell carcinoma
# method_description: Relative colony forming efficiency after antisense treatment (Table 13)
# Format: cell-based, human
# assay_conditions: 0.2 μM antisense oligodeoxyribonucleotide phosphorothioate; HCT116 cells; averages of 2-8 determinations
Strand notation (5' to 3'): a small letter for the sugar, then the base; units joined by * are phosphorothioate-linked, units joined directly phosphodiester-linked; [ ] holds rarer units or linkages, { } end groups; capitals alone tell only the bases. d = 2'-deoxy (DNA)
assay_metric: Reduced relative colony forming efficiency, expressed as % inhibition, HCT116 (%)

item_sequence | unit_symbol | recorded_number
GCCACAGGATAAAAACACAA (antisense; DNA, all phosphorothioate, methylation of C not given here) [AS-II-2009-20] | % | 69.92
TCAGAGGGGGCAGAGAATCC (antisense; DNA, all phosphorothioate, methylation of C not given here) [AS-II-2044-20] | % | 49.34
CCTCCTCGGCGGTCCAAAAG (dC*dC*dT*dC*dC*dT*dC*dG*dG*dC*dG*dG*dT*dC*dC*dA*dA*dA*dA*dG; antisense) [AS-II-494-20] | % | 50.28

* * *

# Test system: MDA-MB-231 breast cell adenocarcinoma
# method_description: Relative colony forming efficiency after antisense treatment (Table 13, FIG. 11, FIG. 12)
# Format: cell-based, human
# assay_conditions: 0.2 μM antisense oligodeoxyribonucleotide phosphorothioate; MDA-MB-231 cells; averages of 2-8 determinations
Strand notation (5' to 3'): a small letter for the sugar, then the base; units joined by * are phosphorothioate-linked, units joined directly phosphodiester-linked; [ ] holds rarer units or linkages, { } end groups; capitals alone tell only the bases. d = 2'-deoxy (DNA)
assay_metric: Reduced relative colony forming efficiency, expressed as % inhibition, MDA-MB-231 (%)

item_sequence | recorded_number
TATCGCCGCCGTGAGTACAA (DNA, all phosphorothioate, methylation of C not given here) [AS-II-1768-20] | 91.56
TGTAAACCCTCATCTCTGCT (antisense; DNA, all phosphorothioate, methylation of C not given here) [AS-II-981-20] | 91.48
ACCCTTCCCATTGGCTGCGC (dA*dC*dC*dC*dT*dT*dC*dC*dC*dA*dT*dT*dG*dG*dC*dT*dG*dC*dG*dC; antisense) [AS-II-6-20] | 88.4

* * *

# System: MIA PaCa-2 pancreatic cell carcinoma
# method_description: Relative colony forming efficiency after antisense treatment (Table 13)
# Type: cell-based, human
# assay_conditions: 0.2 μM antisense oligodeoxyribonucleotide phosphorothioate; MIA PaCa-2 cells; averages of 2-8 determinations
Strand notation (5' to 3'): a small letter for the sugar, then the base; units joined by * are phosphorothioate-linked, units joined directly phosphodiester-linked; [ ] holds rarer units or linkages, { } end groups; capitals alone tell only the bases. d = 2'-deoxy (DNA)
The reader will find reported Reduced relative colony forming efficiency, expressed as % inhibition, MIA PaCa-2 values listed item by item below.
assay_metric: Reduced relative colony forming efficiency, expressed as % inhibition, MIA PaCa-2 (%)

item_sequence | recorded_number
GCAAAGGCTACAACACGTTC (antisense; DNA, all phosphorothioate, methylation of C not given here) [AS-II-861-20] | 97.3
CGGCTCATCCTCCACGC (dC*dG*dG*dC*dT*dC*dA*dT*dC*dC*dT*dC*dC*dA*dC*dG*dC) [AS-II-391-17] | 26.35
GCATCCAAGGTAAAAGAATT (DNA, all phosphorothioate, methylation of C not given here) [AS-II-1335-20] | 78.78
AACCGGAAAAGAAAATGCCT (antisense; DNA, all phosphorothioate, methylation of C not given here) [AS-II-890-20] | 66.02
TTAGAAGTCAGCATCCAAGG (DNA, all phosphorothioate, methylation of C not given here) [AS-II-1345-20] | 77.39
ATAAAGTCAAATGGGTTCTC (DNA, all phosphorothioate, methylation of C not given here) [AS-II-1224-20] | 17.22
CGCGCTCCCGGCCC (dC*dG*dC*dG*dC*dT*dC*dC*dC*dG*dG*dC*dC*dC) [AS-II-79-14] | 38.89
ATGGAAAAAAAAAATCAGCC (DNA, all phosphorothioate, methylation of C not given here) [AS-II-1390-20] | 82.77
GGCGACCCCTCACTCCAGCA (antisense dG*dG*dC*dG*dA*dC*dC*dC*dC*dT*dC*dA*dC*dT*dC*dC*dA*dG*dC*dA) [AS-II-114-20] | 90.05
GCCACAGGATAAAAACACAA (antisense; DNA, all phosphorothioate, methylation of C not given here) [AS-II-2009-20] | 93.74
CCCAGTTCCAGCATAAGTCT (DNA, all phosphorothioate, methylation of C not given here) [AS-II-1182-20] | 84.72
GCGGCGGGGGTTTTCTCTCA (dG*dC*dG*dG*dC*dG*dG*dG*dG*dG*dT*dT*dT*dT*dC*dT*dC*dT*dC*dA; antisense) [AS-II-412-20] | 55.25
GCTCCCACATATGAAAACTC (antisense; DNA, all phosphorothioate, methylation of C not given here) [AS-II-2229A-20] | 33.61
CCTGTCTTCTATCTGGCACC (antisense; DNA, all phosphorothioate, methylation of C not given here) [AS-II-1989-20] | 70.22
GGCCCAGATCACCCCTAAAT (antisense; DNA, all phosphorothioate, methylation of C not given here) [AS-II-2128-20] | 39.23
CCTCTGATACTCGCCTACTC (DNA, all phosphorothioate, methylation of C not given here) [AS-II-1288-20] | 80.71
AGCCTCTGCCTTCTTATACA (dA*dG*dC*dC*dT*dC*dT*dG*dC*dC*dT*dT*dC*dT*dT*dA*dT*dA*dC*dA; antisense) [AS-II-472-20] | 97.13

* * *

The reader will find reported Reduced relative colony forming efficiency, expressed as % inhibition, PC-3 values listed item by item below.
# System: PC-3 prostrate cell adenocarcinoma
# method_description: Relative colony forming efficiency after antisense treatment (Table 13)
# Assay type: cell-based, human
# assay_conditions: 0.2 μM antisense oligodeoxyribonucleotide phosphorothioate; PC-3 cells; averages of 2-8 determinations
assay_metric: Reduced relative colony forming efficiency, expressed as % inhibition, PC-3 (%)

item_sequence | recorded_number
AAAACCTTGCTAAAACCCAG (DNA, all phosphorothioate, methylation of C not given here) [AS-II-1197-20] | 74.4
GCACATCTTCAGTTCATTTA (DNA, all phosphorothioate, methylation of C not given here) [AS-II-1362-20] | 77.38
GTAAGTCACAGCCAGCCAGG (DNA, all phosphorothioate, methylation of C not given here) [AS-II-1560-20] | 78.37

* * *

# Test system: T24 bladder cell carcinoma
# method_description: Relative colony forming efficiency after antisense treatment (Table 13)
# Type: cell-based, human
# assay_conditions: 0.2 μM antisense oligodeoxyribonucleotide phosphorothioate; T24 cells; averages of 2-8 determinations
Strand notation (5' to 3'): a small letter for the sugar, then the base; units joined by * are phosphorothioate-linked, units joined directly phosphodiester-linked; [ ] holds rarer units or linkages, { } end groups; capitals alone tell only the bases. d = 2'-deoxy (DNA)
The reader will find reported Reduced relative colony forming efficiency, expressed as % inhibition, T24 values listed item by item below.
assay_metric: Reduced relative colony forming efficiency, expressed as % inhibition, T24 (%)

item_sequence | system_tested | recorded_number
AGCCTCTGCCTTCTTATACA (dA*dG*dC*dC*dT*dC*dT*dG*dC*dC*dT*dT*dC*dT*dT*dA*dT*dA*dC*dA; antisense) [AS-II-472-20] | T24 bladder cell carcinoma | 69.26
CTCTCTCCTCCGATGGTTTG (DNA, all phosphorothioate, methylation of C not given here) [AS-II-1040-20] | T24 bladder cell carcinoma | 59.49
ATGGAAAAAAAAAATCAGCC (DNA, all phosphorothioate, methylation of C not given here) [AS-II-1390-20] | T24 bladder cell carcinoma | 61.13
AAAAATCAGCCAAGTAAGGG (DNA, all phosphorothioate, methylation of C not given here) [AS-II-1381-20] | T24 bladder cell carcinoma | 71.37
GACATCACTCCCATCCTCTG (DNA, all phosphorothioate, methylation of C not given here) [AS-II-1302-20] | T24 bladder cell carcinoma | 70.56
CACACAACCTACTTACACCA (antisense; DNA, all phosphorothioate, methylation of C not given here) [AS-II-2372-20] | T24 bladder cell carcinoma | 61.13
TTGTGTACCAGGTGTTTGAA (DNA, all phosphorothioate, methylation of C not given here) [AS-II-1023-20] | T24 bladder cell carcinoma | 58.26
